# measurement_target: human CYP17 in H295R adrenocortical carcinoma cells (Homo sapiens)
# Construct: H295R Adrenocortical carcinoma cells [NCI-H295A, ATCC Number CRL-2128, American Type Culture Collection; host or cells: H295R adrenocortical carcinoma cells
# assay_overview: Cell-based human CYP17 inhibition assay, H295R cells
# condition_info: 16 hours, read-out: CYP17 (human H295R adrenal cells)
readout_type: IC50

{"molecule": "CCC(O)(c1ccncc1)c1ncc(-c2cn[nH]c2)o1 (stereo not shown)", "endpoint_result": "201 to 10000 nM"}
{"molecule": "CC(O)(c1ccncc1)c1cc(-c2ccc(F)cc2)n[nH]1 (stereo not shown)", "endpoint_result": "201 to 10000 nM"}
{"molecule": "CC(O)(c1ccncc1)c1cnc(-c2ccc(F)cc2F)s1 (stereo not shown)", "endpoint_result": "< 50 nM"}
{"molecule": "CC(O)(c1ccncc1)c1nc(-c2ccc(F)cc2)no1 (single isomer, unassigned; (+)) [Example 36]", "endpoint_result": "< 50 nM"}
{"molecule": "CC(O)(c1ccncc1)c1cnc(-c2ccc(Cl)c(C#N)c2)s1 (stereo not shown)", "endpoint_result": "< 50 nM"}
{"molecule": "CC(O)(c1ccncc1)c1cnc(-c2ccc(F)cc2)o1 (stereo not shown)", "endpoint_result": "201 to 10000 nM"}
{"molecule": "CCCCC(=O)c1ccc(-c2ccc(C(C)(O)c3ccncc3)nc2)cn1 (stereo not shown)", "endpoint_result": "201 to 10000 nM"}
{"molecule": "CC(O)(c1ccncc1)c1cnc(-c2ccc(F)c(F)c2)s1 (stereo not shown)", "endpoint_result": "< 50 nM"}
{"molecule": "CC(O)(c1ccncc1)c1cc(-c2ccc(F)cc2)no1 (stereo not shown)", "endpoint_result": "50 to 200 nM"}
{"molecule": "CC(O)(c1ccncc1)c1ccc(-c2ccc(F)cc2)o1 (stereo not shown)", "endpoint_result": "50 to 200 nM"}
{"molecule": "COc1ccc(-c2ccc(C(C)(O)c3ccncc3)nc2)cc1F (stereo not shown)", "endpoint_result": "50 to 200 nM"}
{"molecule": "Cn1cc(-c2ccc(C(C)(O)c3ccncc3)s2)ccc1=O (stereo not shown) [Example 15]", "endpoint_result": "50 to 200 nM"}
{"molecule": "CCC(O)(c1ccncc1)c1nnc(-c2ccc(F)cc2)s1 (stereo not shown)", "endpoint_result": "201 to 10000 nM"}
{"molecule": "Cn1cc(-c2ncc(C(C)(O)c3ccncc3)o2)ccc1=O (stereo not shown)", "endpoint_result": "201 to 10000 nM"}
{"molecule": "CC(O)(c1ccncc1)c1cnc(-c2ccc(F)cc2)s1 (single isomer, unassigned) [Example 9]", "endpoint_result": "< 50 nM"}
{"molecule": "CC(O)(c1ccncc1)c1cnc(-c2ccc(F)cc2)cn1 (stereo not shown)", "endpoint_result": "201 to 10000 nM"}
{"molecule": "CC(=O)NC(C)(c1ccncc1)c1cnc(-c2ccc(F)cc2)s1 (stereo not shown)", "endpoint_result": "201 to 10000 nM"}
{"molecule": "CC(O)(c1ccncc1)c1cnc(-c2ccc(C#N)c(Cl)c2)s1 (stereo not shown)", "endpoint_result": "50 to 200 nM"}
{"molecule": "CC(O)(c1ccncc1)c1cnc(-c2ccc(C(F)(F)F)cc2)s1 (stereo not shown)", "endpoint_result": "50 to 200 nM"}
